- Measurement description: physchem
- Format: physicochemical
- Experimental context: pH 14, aqueous buffer, thermodynamic from solid, pH 14 (value outside brackets); read-out: Solubility (M) at pH 14 (pH 12)
Measured endpoint: solubility (M)
Write the answer as a number in M, unit excluded.

stdin: solubility for O=C([O-])CCCOc1ccc2c(c1)C(=O)c1ccc(OCCCC(=O)[O-])cc1C2=O.[K+].[K+] ?
stdout: 1.1

###

- Measurement description: physchem
- Format: physicochemical
- Experimental context: pH 9, aqueous buffer, thermodynamic from solid, pH 9; read-out: solubility of the oxidized form
Measured endpoint: solubility (mM)
# number only, unit mM dropped from output

stdin: Recorded solubility of O=C1c2ccc(OCCCP(=O)(O)O)cc2C(=O)c2ccc(OCCCP(=O)(O)O)cc21 , please.
stdout: 750
